Tested on: BT-549 breast
Experiment: NCI-60 one-dose screen, 48 h
Details: 10 µM unless noted
The panel holds about 83,000 compounds, 20% with a hit somewhere; the sample as a whole holds those more often. Active and inactive are the calls of the source. Rule for the calls: active = growth percent below 10; inactive = the rest.
Output constraint: value belongs to TRUE = active, FALSE = inactive

# Compound, Answer label
rows = [
    ("COc1cccc(-c2nn(-c3ccccc3)cc2-c2ccnc(NCCNS(=O)(=O)c3ccc(C(F)(F)F)cc3)c2)c1", "TRUE"),
    ("COc1ccc(-c2nc3ncccn3c2-c2nc3ccc(Br)cc3[nH]2)cc1", "FALSE"),
    ("COC(=O)c1cc(=O)nc(N/N=C/c2ccc(C)cc2)s1", "FALSE"),
    ("NC(=O)[C@@H]1CC2CCC1C2 (some centres not stated)", "FALSE"),
    ("COc1cc2nc(Cl)nc(Nc3cccc(C(=O)/C=C/c4ccc(F)cc4)c3)c2cc1OC", "FALSE"),
    ("CCOC(=O)N1CCN(CCCCOc2ccc(C(C)(C)CC)cc2)CC1", "FALSE"),
]

Ask | Write down the call the test reported for this compound. Item: "O=S(=O)(NCCNc1cc(-c2cn(-c3ccccc3)nc2-c2cccc(O)c2)ccn1)c1ccc(C(F)(F)F)cc1"
Reply | FALSE

====

Test system: NCI-H460 lung
Test: NCI-60 one-dose screen, 48 h
Details: 10 µM unless noted
Compounds without any hit were thinned out: in the full panel of roughly 83,000, 20% have a hit. Calls of active or inactive are those of the source. How the source made its calls: active means growth percent below 10; inactive means the rest.
Output constraint: value belongs to active, inactive

# Molecule, Answer label
measured = [
    ("COc1ccc(-c2n/c(=C\\c3c(O)[nH]c4ccc(OC)cc34)cc3c2=Nc2ccccc2-3)cc1", "active"),
    ("O=C1/C(=C\\C(Cl)=C/c2ccc([N+](=O)[O-])cc2)SC(=S)N1CCc1ccc(O)cc1", "active"),
]

Ask | Write down the call the test reported for this molecule. Item: "COc1cc2c(cc1-c1c(C)noc1C)ncc1nc(C3CCCCC3)n([C@@H](C)COC(F)F)c12"
Reply | inactive

Ask | Next entry: "CC(C)(C)c1ccc(OCCCCCCCN2CCNCC2)cc1"
Reply | active

Ask | Next entry: NC1=C(C/C(N)=N\O)C(c2ccccc2Cl)c2c(ccc3ccccc23)O1 (configuration not stated)
Reply | inactive

Ask | Next entry: "Fc1ccc(Nc2ccc3c(OCCCN4CCOCC4)cccc3n2)cc1F"
Reply | inactive

Ask | Next entry: "COC(=O)[C@]12CC[C@@H](C)[C@H](C)[C@@H]1C1=CC[C@@H]3[C@@]4(C)CC(=O)[C@H](OC(=O)c5ccco5)[C@@]5(C)COC(=C45)C[C@@]3(C)[C@]1(C)CC2"
Reply | active

Ask | Next entry: C/C(=N\NC(=O)C(C)SC(C)C(=O)N/N=C(\C)c1cccnc1)c1cccnc1 (configuration not stated)
Reply | inactive

Ask | Next entry: "Cc1cc(C)nc(NC(N)=NCCc2ccccc2)n1"
Reply | inactive

Ask | Next entry: "O=C(O)c1cccc2c1Cc1cc([N+](=O)[O-])ccc1-2"
Reply | inactive

Ask | Next entry: "N#C/C(=C\c1ccc(-c2ccc(F)cc2)o1)c1nc(-c2ccco2)cs1"
Reply | inactive

Ask | Next entry: "COc1ccc(-c2cc(/C=C/C(=O)c3ccc(OC)c(OC)c3)[nH]n2)cc1"
Reply | active

Ask | Next entry: "C[N+](C)(CCCCCC[N+](C)(C)C1c2ccccc2-c2ccccc21)C1c2ccccc2-c2ccccc21"
Reply | inactive

Ask | Next entry: "Cn1c(/C(C#N)=C/c2ccc3ccccc3c2)cc2ccccc21"
Reply | active

Ask | Next entry: "COc1cc2nc(Cl)nc(Nc3cccc(C(=O)/C=C/c4ccc(Cl)cc4)c3)c2cc1OC"
Reply | inactive

Ask | Next entry: CC1(C)c2ccccc2C(=O)C1(Br)Cc1ccccc1 (configuration not stated)
Reply | inactive

Ask | Next entry: "COCCNC1=C(Cl)C(=O)c2ccccc2C1=O"
Reply | inactive

Ask | Next entry: "Nc1c(Cl)cc(N=Nc2ccccc2)cc1Cl"
Reply | inactive

Ask | Next entry: COc1ccc2c(c1)C(Br)=C(CCO)C2c1ccccc1 (configuration not stated)
Reply | active

Ask | Next entry: "O=C1OC(c2ccc(Cl)c(Cl)c2)=C/C1=C/c1cccc([N+](=O)[O-])c1"
Reply | inactive

Ask | Next entry: "NCCn1cc(-c2nc(-c3c[nH]c4ncccc34)cs2)c2cc(Br)ccc21"
Reply | inactive

Ask | Next entry: "COc1ccc2c(c1)c(-c1nc(-c3cn(C)c4ncccc34)cs1)cn2CCCN1CCCCC1"
Reply | active
